# assay-name: qHTS assay for small molecule agonists of the p53 signaling pathway - cell viability (AID 651633); also: nearly all actives have a fitted effect of over 30% in size; also: potency is read from the fitted curve at half-maximal effect
# reported-conditions: p53RE-bla HCT-116 viability, ATP luminescence, 16 h; series mostly up to 83.3 µM
Records with an inconclusive call do not appear. Activity calls are given as the source filed them. Calls follow the shape of the full dose curve.

>  <compound>
COC(=O)c1ccccc1S(=O)(=O)NC(=O)Nc1nc(C)nc(OC)n1

>  <Potency>
inactive

$$$$
>  <compound>
CC(C)C(Br)C(=O)NC(N)=O (centres undefined)

>  <Potency>
inactive

$$$$
>  <compound>
c1ccc2c(c1)cc1ccc3cccc4ccc2c1c34

>  <Potency>
inactive

$$$$
>  <compound>
Cc1cnc2c(C(=O)O)c(Cl)ccc2c1

>  <Potency>
inactive

$$$$
>  <compound>
Nc1ccc(N=Nc2ccccc2)cc1

>  <Potency>
inactive

$$$$
>  <compound>
CC(C)Br

>  <Potency>
inactive

$$$$
>  <compound>
CC(O)C(=O)[O][Hg][c]1ccccc1 (centres undefined)

>  <Potency>
0.217 µM (active)

$$$$
>  <compound>
NC(=O)C(Cl)Cl

>  <Potency>
inactive

$$$$
>  <compound>
COc1ccc2[nH]cc(CCN(C(C)C)C(C)C)c2c1

>  <Potency>
inactive

$$$$
>  <compound>
CCCCCCC[CH2][Sn]([Cl])([Cl])[CH2]CCCCCCC

>  <Potency>
15.3 µM (active)

$$$$
>  <compound>
CCN(CC)C(=S)S

>  <Potency>
inactive

$$$$
>  <compound>
CN=C=O

>  <Potency>
inactive

$$$$
>  <compound>
CC1(C)C(C=C(Cl)Cl)C1C(=O)OC(C#N)c1ccc(F)c(Oc2ccccc2)c1 (centres undefined)

>  <Potency>
inactive

$$$$
>  <compound>
Cc1cc2c3c(c1)C(c1ccccc1)=N[C@@H](NC(=O)c1ccncc1)C(=O)N3CC2

>  <Potency>
inactive

$$$$
>  <compound>
CN(C)c1ccc(N)cc1

>  <Potency>
inactive

$$$$
>  <compound>
CC(Cc1ccc(OCC(=O)O)cc1)NCC(O)c1csc(C(F)(F)F)n1 (centres undefined)

>  <Potency>
inactive

$$$$
>  <compound>
CC[C@H](C)[C@H]1O[C@]2(C=C[C@@H]1C)C[C@@H]1C[C@@H](C/C=C(\C)[C@@H](O[C@H]3C[C@H](OC)[C@@H](O[C@H]4C[C@H](OC)[C@@H](NC)[C@H](C)O4)[C@H](C)O3)[C@@H](C)/C=C/C=C3\CO[C@@H]4[C@H](O)C(C)=C[C@@H](C(=O)O1)[C@]34O)O2

>  <Potency>
10.9 µM (active)

$$$$
>  <compound>
ClC1=C(Cl)[C@]2(Cl)[C@@H]3[C@H]4C[C@H]([C@@H]5O[C@H]45)[C@@H]3[C@@]1(Cl)C2(Cl)Cl

>  <Potency>
inactive

$$$$
>  <compound>
COc1ccc(Cc2nccc3cc(OC)c(OC)cc23)cc1OC

>  <Potency>
inactive

$$$$
>  <compound>
COc1ccc2c(c1OC)C(=O)O[C@@H]2[C@H]1c2cc3c(cc2CCN1C)OCO3

>  <Potency>
inactive

$$$$
>  <compound>
[Cl][Hg][c]1ccccc1

>  <Potency>
1.93 µM (active)

$$$$
>  <compound>
CNC(=O)Oc1cc(C)cc(C(C)C)c1

>  <Potency>
inactive

$$$$
>  <compound>
CSC1=N[C@@](C)(c2ccccc2)C(=O)N1Nc1ccccc1

>  <Potency>
inactive

$$$$
>  <compound>
C#CCO

>  <Potency>
inactive

$$$$
